molecular target: human TLR8 (Homo sapiens, UniProt Q9NR97); construct: expressed in transfected cells; host or cells: HEK293; assay: TLR8 cellular NFκB-luc reporter assay in transiently transfected HEK293 cells; assay type: cell-based; conditions: lowest effective concentration, 6 hours incubation
Sequence (Q9NR97 27-1041): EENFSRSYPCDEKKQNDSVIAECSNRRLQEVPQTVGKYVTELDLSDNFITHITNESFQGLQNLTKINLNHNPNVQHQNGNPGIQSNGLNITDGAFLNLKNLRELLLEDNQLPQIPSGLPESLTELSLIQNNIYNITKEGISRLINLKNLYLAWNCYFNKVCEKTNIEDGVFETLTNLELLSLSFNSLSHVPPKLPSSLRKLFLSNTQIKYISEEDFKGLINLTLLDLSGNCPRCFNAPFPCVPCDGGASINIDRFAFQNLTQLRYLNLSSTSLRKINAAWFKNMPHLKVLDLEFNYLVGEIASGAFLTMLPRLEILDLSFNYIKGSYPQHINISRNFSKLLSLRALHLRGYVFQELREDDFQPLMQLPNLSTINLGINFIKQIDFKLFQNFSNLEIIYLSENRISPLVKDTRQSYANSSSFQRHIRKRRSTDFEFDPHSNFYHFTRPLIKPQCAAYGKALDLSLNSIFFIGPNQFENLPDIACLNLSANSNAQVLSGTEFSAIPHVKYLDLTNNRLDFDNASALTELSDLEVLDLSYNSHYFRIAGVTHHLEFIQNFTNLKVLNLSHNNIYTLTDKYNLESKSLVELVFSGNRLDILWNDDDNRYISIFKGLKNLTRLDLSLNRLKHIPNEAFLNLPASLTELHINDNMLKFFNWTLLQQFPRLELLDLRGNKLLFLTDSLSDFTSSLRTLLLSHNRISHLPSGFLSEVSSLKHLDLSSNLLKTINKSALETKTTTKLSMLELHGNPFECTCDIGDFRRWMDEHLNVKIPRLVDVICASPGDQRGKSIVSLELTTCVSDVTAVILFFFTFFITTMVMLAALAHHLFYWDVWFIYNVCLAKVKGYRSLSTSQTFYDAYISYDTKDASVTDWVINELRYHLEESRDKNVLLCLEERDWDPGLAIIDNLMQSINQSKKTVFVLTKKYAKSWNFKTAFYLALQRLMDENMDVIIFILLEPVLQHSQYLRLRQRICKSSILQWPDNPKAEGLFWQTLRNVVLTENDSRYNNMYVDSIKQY
One threshold, 0.6 µM, splits the recorded Human TLR 8 (LEC) values: lower ones are Y, equal or higher ones are N.

Answered examples (6):
| compound | group_label |
| --- | --- |
| CCCC(C)Nc1nc(N)nc2ccsc12 (centres unmarked) | N |
| CCCCNc1nc(N)nc2cc(C)sc12 | Y |
| CCCC[C@@H](CO)Nc1nc(N)nc2cc(C(C)(C)C)sc12 | N |
| CCC[C@@H](CO)Nc1nc(N)nc2c(C)csc12 | Y |
| CCCCNc1nc(N)nc2ccsc12 | N |
| CCCC[C@@H](CO)Nc1nc(N)nc2ccsc12 | Y |

Continue with the compound presented below.
query: Problem: For the compound CCC[C@@H](CO)Nc1nc(N)nc2ccsc12 , is Human TLR 8 (LEC) under 0.6 µM?
result: Y

---

Target: human TLR7 (Homo sapiens)
Construct: expressed in transfected cells; host or cells: HEK293
Sequence (Q9NYK1 27-1049): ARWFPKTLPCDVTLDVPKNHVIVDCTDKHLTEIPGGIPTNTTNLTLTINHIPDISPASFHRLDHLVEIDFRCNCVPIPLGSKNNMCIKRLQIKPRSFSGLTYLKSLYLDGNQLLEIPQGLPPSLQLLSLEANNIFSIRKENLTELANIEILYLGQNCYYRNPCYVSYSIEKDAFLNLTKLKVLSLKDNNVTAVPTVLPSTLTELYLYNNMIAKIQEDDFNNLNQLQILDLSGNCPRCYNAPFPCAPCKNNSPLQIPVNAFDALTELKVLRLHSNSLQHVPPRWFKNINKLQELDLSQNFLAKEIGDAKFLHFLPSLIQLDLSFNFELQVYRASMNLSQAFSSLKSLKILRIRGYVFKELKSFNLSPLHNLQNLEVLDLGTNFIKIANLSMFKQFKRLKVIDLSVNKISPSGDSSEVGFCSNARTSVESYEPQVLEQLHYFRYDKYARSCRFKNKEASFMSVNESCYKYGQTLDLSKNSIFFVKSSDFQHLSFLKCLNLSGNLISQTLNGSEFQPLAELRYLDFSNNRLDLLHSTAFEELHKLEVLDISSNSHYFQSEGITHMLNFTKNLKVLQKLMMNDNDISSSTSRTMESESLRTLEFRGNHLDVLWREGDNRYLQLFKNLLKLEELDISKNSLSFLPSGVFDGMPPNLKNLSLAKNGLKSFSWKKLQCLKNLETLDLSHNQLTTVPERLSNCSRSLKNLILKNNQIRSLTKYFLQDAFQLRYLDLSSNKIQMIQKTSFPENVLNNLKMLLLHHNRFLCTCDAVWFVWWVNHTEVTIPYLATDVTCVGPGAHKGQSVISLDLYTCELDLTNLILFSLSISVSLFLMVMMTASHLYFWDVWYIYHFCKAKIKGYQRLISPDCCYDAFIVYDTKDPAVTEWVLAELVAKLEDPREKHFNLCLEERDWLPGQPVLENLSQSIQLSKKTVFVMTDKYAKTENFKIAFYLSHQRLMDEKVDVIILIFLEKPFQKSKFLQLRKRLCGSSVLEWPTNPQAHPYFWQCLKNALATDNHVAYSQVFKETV
Test: TLR7 cellular NFκB-luc reporter assay in transiently transfected HEK293 cells
Assay type: cell-based
Conditions: lowest effective concentration, 6 hours incubation
Recorded Human TLR 7 (LEC) by entry
Entry rule: numbers only, all in µM.

| molecule | Human TLR 7 (LEC) / µM |
| --- | --- |
| CCCC[C@@H](CCO)Nc1nc(N)nc2c(C)csc12 [Compound 19] | 3.9 |
| CCCCNc1nc(N)nc2cc(C(C)(C)C)sc12 [Compound 3] | 1.2 |
| CCCCNc1nc(N)nc2ccsc12 [Compound 7] | 1.1 |
| CCCCCNc1nc(N)nc2c(C)csc12 [Compound 14] | 6.8 |

Kindly note the recorded Human TLR 7 (LEC) for CCC[C@@H](CO)Nc1nc(N)nc2c(C)csc12 [Compound 13] , which is 12

Kindly note the recorded Human TLR 7 (LEC) for CCCC(C)Nc1nc(N)nc2ccsc12 (centres unmarked) [Compound 9] , which is 3.3

Kindly note the recorded Human TLR 7 (LEC) for CCCC[C@H](CO)Nc1nc(N)nc2cc(C)sc12 [Compound 21] , which is 10.4

Kindly note the recorded Human TLR 7 (LEC) for CCCCNc1nc(N)nc2c(C)csc12 [Compound 2] , which is 2.2

Kindly note the recorded Human TLR 7 (LEC) for CCC[C@@H](CCO)Nc1nc(N)nc2c(C)csc12 [Compound 16] , which is 5.2

Kindly note the recorded Human TLR 7 (LEC) for CCCC[C@@H](CCO)Nc1nc(N)nc2ccsc12 [Compound 8] , which is 1.2

Kindly note the recorded Human TLR 7 (LEC) for CCCC[C@@H](CO)Nc1nc(N)nc2ccsc12 [Compound 4] , which is 0.5

Kindly note the recorded Human TLR 7 (LEC) for CCC[C@H](Nc1nc(N)nc2ccsc12)C(=O)OC [Compound 10] , which is 6.1

Kindly note the recorded Human TLR 7 (LEC) for CCCCNc1nc(N)nc2cc(C)sc12 [Compound 1] , which is 1.0

Kindly note the recorded Human TLR 7 (LEC) for CCCC[C@@H](CO)Nc1nc(N)nc2c(C)csc12 [Compound 17] , which is 3.7

Kindly note the recorded Human TLR 7 (LEC) for CCC[C@@H](CO)Nc1nc(N)nc2ccsc12 [Compound 5] , which is 2.7

Kindly note the recorded Human TLR 7 (LEC) for CCCC[C@@H](CO)Nc1nc(N)nc2cc(C)sc12 [Compound 22] , which is 2.9

Kindly note the recorded Human TLR 7 (LEC) for CCCCCNc1nc(N)nc2ccsc12 [Compound 11] , which is 2.1

Kindly note the recorded Human TLR 7 (LEC) for CCCC[C@@H](CO)Nc1nc(N)nc2cc(C(C)(C)C)sc12 [Compound 23] , which is 2.7

Values compiled from patent US9556199B2.
